The measurements presented in this section are drawn from the supplement of paper PMC8671470.

# System: KCL-22
# experimental-context: 72 h
readout-label: IC50 (cell viability) (µM)

> print(dat)
                                    molecule  result.qualifier  readout.value
 1   Cc1coc2c1C(=O)C(=O)c1c-2ccc2c1CCCC2(C)C                 >             10
 2  C=C(C)[C@H]1Cc2c(ccc3c2O[C@@H]2COc4cc(OC)c(OC)cc4[C@@H]2C3=O)O1                 =          0.206
 3  CC[C@@]1(O)C(=O)OCc2c1cc1n(c2=O)Cc2cc3c(CN(C)C)c(O)ccc3nc2-1                 =         0.0594
 4  Cc1ccccc1C(C(=O)NC1CCCCC1)N(C(=O)Cn1ccnc1C)c1cccc(F)c1 (configuration not stated)                 >             10
 5  COc1ccc(S(=O)(=O)N2CCN(S(=O)(=O)c3ccc4c(c3)OCCO4)CC2)cc1                 >             10
 6  O=C1c2cc([N+](=O)[O-])ccc2-n2c1nc1ccccc1c2=O                 =          0.538
 7  Cl.NC(CCC(=O)Nc1ccc([N+](=O)[O-])cc1)C(=O)O (configuration not stated)                 >             10
 8  CCOC(=O)c1ccc(-c2ccc(OC(=O)N(C)Cc3cccc(-c4ccncc4)c3)cc2)cc1                 >             10
 9       CCCc1cc(-c2nc(-c3ccc(C)cc3)cs2)ccn1                 >             10
10                   O=C(NNc1ccccc1)c1ccncc1                 =           8.52
11  CC(C)c1onc(-c2c(Cl)cccc2Cl)c1COc1ccc(/C=C/c2cccc(C(=O)O)c2)c(Cl)c1                 =            3.6
12  O=C(NCCCCCCNC(=O)ONC1=CCCCC1)ONC1=CCCCC1                 >             10
13                   C=C(C=NNC(=N)N)NNC(=N)N                 =            4.4
14      O=c1cc(-c2ccccc2)oc2cc(O)c(O)c(O)c12                 >             10
15  N#Cc1ccnc(N2C(=O)CC[C@H]2C(=O)N(c2cncc(F)c2)C(C(=O)NC2CC(F)(F)C2)c2ccccc2Cl)c1 (some centres not stated)                 >             10
16  COC(=O)[C@]12CCC(C)(C)C[C@H]1[C@H]1C(=O)C=C3[C@@]4(C)C=C(C#N)C(=O)C(C)(C)[C@@H]4CC[C@@]3(C)[C@]1(C)CC2                 =           1.14
17  O=c1oc2c(O)c(O)cc3c(=O)oc4c(O)c(O)cc1c4c23                 >             10

----------
# Tested on: HL-60
# measurement-protocol: cell viability (% survival relative to DMSO control); higher = less cytotoxic
# experimental-context: 10 µM; 72 h; co-treatment: AZD3965 100 nM
readout-label: cell viability (%)

> print(dat)
                                   compound  readout.value
1  CCCc1cc(-c2nc(-c3ccc(C)cc3)cs2)ccn1 [Fatostatin]           79.9
2  CCN(CC)CCCC(C)Nc1ccnc2cc(Cl)ccc12 (stereo not given) [Chloroquine]           97.5
3      O=C(NNc1ccccc1)c1ccncc1 [PluriSln 1]             36
4  COc1cc(/C=C/C(=O)N2CCC=CC2=O)cc(OC)c1OC [Piperlongumine]         -0.192
5  COc1ccc(CNC(=O)Nc2ncc([N+](=O)[O-])s2)cc1           95.2

----------
# Tested on: MOLM-13
# measurement-protocol: cell viability (% survival relative to DMSO control, bortezomib = 0%); higher = less cytotoxic
# experimental-context: 100 nM; 72 h
readout-label: cell viability (%)

compound	readout-label	readout-value
CCOC(=O)c1ccc(-c2ccc(OC(=O)N(C)Cc3cccc(-c4ccncc4)c3)cc2)cc1 [WWL113]	cell viability	97.3
NCCCC(N)(C(=O)O)C(F)F (configuration not stated) [Difluoromethylornithine]	cell viability	93.3
CCCCC/C=C\C/C=C\C/C=C\C/C=C\CCCCN1C(=O)C=CC1=O [N-Arachidonylmaleimide]	cell viability	101
Cc1coc2c1C(=O)C(=O)c1c-2ccc2c1CCCC2(C)C [Tanshinone IIA]	cell viability	106
CCCc1cc(-c2nc(-c3ccc(C)cc3)cs2)ccn1 [Fatostatin]	cell viability	106
COC(=O)[C@]12CCC(C)(C)C[C@H]1[C@H]1C(=O)C=C3[C@@]4(C)C=C(C#N)C(=O)C(C)(C)[C@@H]4CC[C@@]3(C)[C@]1(C)CC2 [Bardoxolone methyl]	cell viability	118
O=C1c2cc([N+](=O)[O-])ccc2-n2c1nc1ccccc1c2=O [GNF-Pf-3777]	cell viability	108
NS(=O)(=O)c1ccc([N+](=O)[O-])cc1 [4-Nitrobenzenesulfonamide]	cell viability	95.4
O=C(O)C(=O)CBr [3-bromopyruvic acid]	cell viability	89.2
COc1ccc2c(C(=S)N(C)CC(=O)O)cccc2c1C(F)(F)F [Tolrestat]	cell viability	63.3
O=C(O)c1cc(Cl)cc(Cl)c1O [3,5-Dichlorosalicylic Acid]	cell viability	83.9
N#Cc1ccnc(N2C(=O)CC[C@H]2C(=O)N(c2cncc(F)c2)C(C(=O)NC2CC(F)(F)C2)c2ccccc2Cl)c1 (some centres not stated) [Ivosidenib]	cell viability	109
CC1(C)[C@@H](O[C@H]2O[C@H](C(=O)O)[C@@H](O)[C@H](O)[C@H]2O[C@@H]2O[C@H](C(=O)O)[C@@H](O)[C@H](O)[C@H]2O)CC[C@]2(C)[C@H]3C(=O)C=C4[C@@H]5C[C@@](C)(C(=O)O)CC[C@]5(C)CC[C@@]4(C)[C@]3(C)CC[C@@H]12 [Glycyrrhizin]	cell viability	133
O=c1oc2c(O)c(O)cc3c(=O)oc4c(O)c(O)cc1c4c23 [Benzoaric Acid]	cell viability	96
O=C1O/C(=C/Br)CCC1c1cccc2ccccc12 (configuration not stated) [Bromoenol Lactone]	cell viability	112
CC[C@H](C)C(=O)O[C@H]1C[C@@H](C)C=C2C=C[C@H](C)[C@H](CC[C@@H]3C[C@@H](O)CC(=O)O3)[C@H]21 [Lovastatin]	cell viability	83.8
O=C(O)C1=CC(=C(c2ccc(O)c(C(=O)O)c2)c2ccc(O)c(C(=O)O)c2)C=CC1=O [Aurintricarboxylic acid]	cell viability	107

----------
# Test system: myeloid leukemia patient primary cells Pat.13
# measurement-protocol: cell viability (% survival relative to DMSO control); higher = less cytotoxic
# experimental-context: 10 nM; 72 h
Listing of entries alongside the reported cell viability.
readout-label: cell viability (%)

molecule	result-qualifier	readout-value
N#CC(C#N)=NNc1ccc(OC(F)(F)F)cc1 [FCCP]	>	100
CCC(=O)N1CCN(c2ccc(-n3c(=O)ccc4cnc5ccc(-c6cnc7ccccc7c6)cc5c43)cc2C(F)(F)F)CC1 [Torin1]	=	77.7
CC[C@@]1(O)C(=O)OCc2c1cc1n(c2=O)Cc2cc3c(CN(C)C)c(O)ccc3nc2-1 [Topotecan]	=	91.7
CN(C)C(=O)n1nnnc1Cc1ccc(-c2ccccc2)cc1	=	60.2
COC(=O)[C@]12CCC(C)(C)C[C@H]1[C@H]1C(=O)C=C3[C@@]4(C)C=C(C#N)C(=O)C(C)(C)[C@@H]4CC[C@@]3(C)[C@]1(C)CC2 [Bardoxolone methyl]	=	80.8
Oc1ccc(Nc2nc(-c3ccc(Cl)cc3)cs2)cc1 [SKI II]	=	94.2
C=C(C=NNC(=N)N)NNC(=N)N [Mitoguazone]	=	78.5

----------
# Test system: myeloid leukemia patient primary cells Pat.4
# measurement-protocol: cell viability (% survival relative to DMSO control); higher = less cytotoxic
# experimental-context: 10 nM; 72 h
readout-label: cell viability (%)

> print(dat)
                                     smiles  units  readout.value
1  O=C1c2cc([N+](=O)[O-])ccc2-n2c1nc1ccccc1c2=O      %             97
2     CN(C)C(=O)n1nnnc1Cc1ccc(-c2ccccc2)cc1      %             81
3  O=C(C1CC1)N1CC[C@@H](C=C2NNC(=O)N2c2ccc(-c3ccc4occc4c3)cc2)C1      %           87.2
4        Oc1ccc(Nc2nc(-c3ccc(Cl)cc3)cs2)cc1      %           94.5
5  Cc1c(-c2ccc(-c3ccccc3F)cc2)nc2ccc(F)cc2c1C(=O)O      %           90.6
